System: Nomo-1
Experiment: ATP luminescence proliferation assay, Nomo-1
Format: cell-based, human
Conditions: ATP luminescence, Nomo-1, 72 h incubation; read-out: EC50 Nomo-1 (72 h)
RECORDED_ENDPOINT: pEC50
One number for each entry, as −log10 of the molar value.

Memo: CC[C@H](C)[C@H](NC(=O)[C@H]1CCCCN1C)C(=O)N(COC(=O)CC(C)C)[C@H](C[C@@H](OC(C)=O)c1nc(C(=O)N[C@@H](Cc2ccccc2)C[C@H](C)C(=O)O)cs1)C(C)C [Tub D, tubulysin D, reference compound] , reported pEC50: 10.89

###

Test system: OVCAR3
Assay: 3H thymidine proliferation assay, OVCAR3
Type: cell-based, human
Details: Homo sapiens, OVCAR-3, read-out: EC50, OVCAR3, 3H thymidine method, 72 h incubation
pEC50: −log10 of the molar value.
Kind request: treat 8 as inclusive, so pEC50 at 8 or higher is yes, anything lower is no.

Test whether the compound CC[C@H](C)[C@H](NC(=O)[C@H]1CCCCN1C)C(=O)N(C)[C@H](C[C@@H](OC)c1nc(C(=O)N[C@H](CC(=O)OC)Cc2ccccc2)cs1)C(C)C records pEC50 of 8 or higher.
no

Evaluate CC[C@H](C)[C@H](NC(=O)[C@H]1CCCCN1C)C(=O)N(C)[C@H](C[C@@H](OC)c1nc(C(=O)N[C@@H](C)C(=O)N[C@@H](Cc2ccccc2)C(=O)OC)cs1)C(C)C [Compound 26a] : pEC50 at minimum 8?
no

Please check the record CC[C@H](C)[C@H](NC(=O)[C@H]1CCCCN1C)C(=O)N(C)[C@H](C[C@@H](OC)c1nc(C(=O)N[C@H](CCC(=O)OC)Cc2ccccc2)cs1)C(C)C and state if its pEC50 is at or above 8.
yes

Can CC[C@H](C)[C@H](NC(=O)[C@H]1CCCCN1C)C(=O)N(C)[C@H](C[C@@H](OC)c1nc(C(=O)NC(Cc2ccccc2)C[C@H](C)C(=O)O)cs1)C(C)C (some centres unmarked) be said to have pEC50 at or above 8?
no

Please indicate if the recorded pEC50 for CC[C@H](C)[C@H](NC(=O)[C@H]1CCCCN1C)C(=O)N(COC(=O)CC(C)C)[C@H](C[C@@H](OC(C)=O)c1nc(C(=O)N[C@@H](Cc2ccc(N)cc2)CC(C)C(=O)O)cs1)C(C)C (some centres unmarked) meets or exceeds 8.
yes

Is the recorded value of pEC50 equal to or greater than 8 for this compound? CC[C@H](C)[C@H](NC(=O)[C@H]1CCCCN1C)C(=O)N(C)[C@H](C[C@@H](OC)c1nc(C(=O)N[C@@H](Cc2ccccc2)C(=O)N[C@@H](C)C(=O)OC)cs1)C(C)C
no

Dear colleague, could you confirm whether CC[C@H](C)[C@H](NC(=O)[C@H]1CCCCN1C)C(=O)N(C)[C@H](C[C@@H](OC(C)=O)c1nc(C(=O)N[C@@H](Cc2ccc(N)cc2)CC(C)C(=O)O)cs1)C(C)C (some centres unmarked) has pEC50 at or above 8?
no

Decide: is the reported value of pEC50 for CCCC(NC(=O)c1csc([C@@H](C[C@H](C(C)C)N(C)C(=O)[C@@H](NC(=O)[C@H]2CCCCN2C)[C@@H](C)CC)OC)n1)C(=O)OC (some centres unmarked) equal to or greater than 8?
no
